# MTD at 2 weeks annotations
Test: Acute toxicity test (maximum tolerated dose)
Conditions: female, ICR, mouse, in vivo, iv, MTD
Return type: number; implicit unit mg/kg.

[
  {
    "Mol": "Cc1c(CC(C)C)[nH]c2ccccc2c1=O",
    "MTD at 2 weeks, mg/kg": 25
  },
  {
    "Mol": "CCCCCCCCc1c(C)c(=O)c2ccccc2n1C#N",
    "MTD at 2 weeks, mg/kg": 6.25
  }
]

As a next step, examine the compound that follows.
Request: Returns the measured MTD at 2 weeks for the input compound. Input: CCCCCCCCc1c(C)c(=O)c2ccccc2n1CC(=O)OC
Result: 6.25

====

# MTD at 2 weeks annotations
Experiment: Acute toxicity test (maximum tolerated dose)
Conditions: female, ICR, mouse, in vivo, iv, intravenous administration, ICR mice, observed for 2 weeks; one half of the dose with death or serious toxicity; read-out: MTD
Return type: number; implicit unit mg/kg.

[
  {
    "Mol": "Cc1c(CCCC/C=C/C(C)C)[nH]c2ccccc2c1=O",
    "MTD at 2 weeks [mg/kg]": 1.56
  }
]

As a next step, examine the compound that follows.
Request: Returns the measured MTD at 2 weeks for the input compound. Input: CCCCCCCc1c(C)c(=O)c2ccccc2n1CN=C=S
Result: 6.25

====

Test system: Escherichia coli K-12 strain
Assay: Measurement of MIC for Escherichia coli
Assay type: cell-based
Settings: K12STRAIN, nutrient broth medium, 37° C. overnight, read-out: MIC Escherichia coli K-12
# MIC annotations
Return type: number; implicit unit µg/mL.

[
  {
    "Mol": "CCCCCCCCc1nc2ccccc2c(OCC(=O)O)c1C",
    "MIC [µg/mL]": 128
  }
]

As a next step, examine the compound that follows.
Request: Returns the measured MIC for the input compound. Input: Cc1c(CC(C)C)[nH]c2ccccc2c1=O
Result: 128

====

# MIC annotations
Tested on: Haemophilus influenza T-196 strain
Assay: Measurement of MIC for Haemophilus influenza T-196
Assay type: cell-based
Details: HI medium, 18 hours, 37° C., 5% carbon dioxide; read-out: MIC Haemophilus influenzae T-196
Return type: number; implicit unit µg/mL.

[
  {
    "Compound": "CCCCCCCCc1nc2ccccc2c(OCC(=O)O)c1C",
    "Target": "Haemophilus influenza T-196 strain",
    "Endpoint Result": 64
  },
  {
    "Compound": "CCCCCCCCc1c(C)c(=O)c2ccccc2n1CC(=O)O",
    "Target": "Haemophilus influenza T-196 strain",
    "Endpoint Result": 128
  },
  {
    "Compound": "Cc1c(CC(C)C)[nH]c2ccccc2c1=O",
    "Target": "Haemophilus influenza T-196 strain",
    "Endpoint Result": 64
  },
  {
    "Compound": "CC1(C)S[C@@H]2[C@H](NC(=O)[C@H](N)c3ccccc3)C(=O)N2[C@H]1C(=O)O [ABPC, ampicillin, reference compound]",
    "Target": "Haemophilus influenza T-196 strain",
    "Endpoint Result": 0.5
  }
]

As a next step, examine the compound that follows.
Request: Which MIC is reported with Haemophilus influenza T-196 strain for this entry: CC[C@H]1OC(=O)[C@H](C)[C@@H](O[C@H]2C[C@@](C)(OC)[C@@H](O)[C@H](C)O2)[C@H](C)[C@@H](O[C@@H]2O[C@H](C)C[C@H](N(C)C)[C@H]2O)[C@](C)(OC)C[C@@H](C)C(=O)[C@H](C)[C@@H](O)[C@]1(C)O [Clarithromycin, clarithromycin, reference compound] ?
Result: 8
